Molecular target: A*11:01 (human), P04439
Details: modification not given
pIC50: −log10 of the molar value.
Endpoint: pIC50

>>> df
                                  binder  endpoint  measured_value
0  VTFKVPHAK [SEQ ID NO: 309 serotype 4]     pIC50            7.85
